Assay System: T1, Goat anti-Human Kappa
T1 construct: Positive control; also called biotinylated goat anti-human kappa light chain
Assay Name: ELISA; positive control; further: test concentration or dose not given here
Method: The binding of ACVR2A-specific monoclonal antibodies to human ACVR2A, mouse ACVR2A, biotinylated goat anti-human kappa light chain (positive control) and human Fc (negative control) were determined by ELISA.
Test Readout: optical density (OD)

Binder	Test Readout	Result Value
365_F12 (antibody, V domains shown, VH/VL only) VH: EVQLLESGGGLVQPGGSLRLSCAASGFTFSDYSMNWVRQAPGKGLEWVSGINYNGGYTSYADSVKGRFTISRDNSKNTLYLQMNSLRAEDTAVYYCARSANWHDTHLDYWGQGTLVTVSS VL: DIQMTQSPSSLSASVGDRVTITCRASQSILTYVNWYQQKPGKAPKLVIYAATSRHSGVPSRFSGSGSGTDFTLTISSLQPEDFATYYCQQSYETPLTFGGGTKVEIK	optical density	3.63
371_C07 (antibody, V domains shown, VH/VL only) VH: EVQLLESGGGLVQPGGSLRLSCAASGFTFDSYGMNWVRQAPGKGLEWVSNINYNGGYTGYADSVKGRFTISRDNSKNTLYLQMNSLRAEDTAVYYCARGATWHDTALDYWGQGTLVTVSS VL: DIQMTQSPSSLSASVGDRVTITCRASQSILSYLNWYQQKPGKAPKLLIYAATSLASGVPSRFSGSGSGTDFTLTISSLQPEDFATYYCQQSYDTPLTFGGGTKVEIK	optical density	3.36
365_A08 (antibody, V domains shown, VH/VL only) VH: EVQLLESGGGLVQPGGSLRLSCAASGFTFSSYSMNWVRQAPGKGLEWVASINYNGGYKSYADSVKGRFTISRDNSKNTLYLQMNSLRAEDTAVYYCARGATWHDTHLDYWGQGTLVTVSS VL: DIQMTQSPSSLSASVGDRVTITCRASQSIITYLNWYQQKPGKAPKLVIYAATSRASGVPSRFSGSGSGTDFTLTISSLQPEDFATYYCQQSDNTPLTFGGGTKVEIK	optical density	3.2
